molecular target: Galectin-1 (Homo sapiens (Human)); assay: Fluorescence anisotropy assay, inhibition of galectin / fluorescein tagged saccharide probe interaction; type: binding
Sequence (P09382 whole entry): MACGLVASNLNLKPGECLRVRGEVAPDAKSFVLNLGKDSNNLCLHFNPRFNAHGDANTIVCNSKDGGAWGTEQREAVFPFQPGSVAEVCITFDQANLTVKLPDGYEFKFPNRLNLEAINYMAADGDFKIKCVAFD
measured property: Kd (nM)

>>> value("CN(C)C(=O)c1ccc(Cl)cc1S[C@H]1OC(CO)[C@H](O)[C@H](n2cc(-c3csc(O)n3)nn2)C1O (some centres unmarked) [Example 32]")
44
>>> value("N#Cc1ncc(Cl)cc1S[C@H]1O[C@H](CO)[C@H](O)[C@H](n2cc(-c3nc(Cl)cs3)nn2)[C@H]1O [Example 5]")
95
>>> value("OC[C@H]1O[C@H](Sc2cc(Cl)c(F)c(Cl)c2)[C@H](O)[C@@H](n2cc(-c3csc(O)n3)nn2)[C@H]1O [Example 18]")
27
>>> value("N#Cc1ccc(S[C@H]2O[C@H](CO)[C@H](O)[C@H](n3cc(-c4csc(O)n4)nn3)[C@H]2O)cc1Br [Example 22]")
63
>>> value("N#Cc1ncc(S[C@H]2O[C@H](CO)[C@H](O)[C@H](n3cc(-c4csc(O)n4)nn3)[C@H]2O)cc1Cl [Example 13]")
38
>>> value("O=C(O)c1ncc(Cl)cc1S[C@H]1O[C@H](CO)[C@H](O)[C@H](n2cc(-c3csc(O)n3)nn2)[C@H]1O [Example 28]")
46
>>> value("OC[C@H]1O[C@H](Sc2cnc(C(F)(F)F)c(Br)c2)[C@H](O)[C@@H](n2cc(-c3csc(O)n3)nn2)[C@H]1O [Example 23]")
32
>>> value("Cc1ccc(S[C@H]2O[C@H](CO)[C@H](O)[C@H](n3cc(-c4csc(O)n4)nn3)[C@H]2O)cc1Cl [Example 26]")
82

1. OC[C@H]1O[C@H](Sc2ccc(C(F)(F)F)c(Cl)c2)[C@H](O)[C@@H](n2cc(-c3csc(O)n3)nn2)[C@H]1O [Example 24]
2. N#Cc1ncc(Br)cc1S[C@H]1O[C@H](CO)[C@H](O)[C@H](n2cc(-c3csc(O)n3)nn2)[C@H]1O [Example 14]
3. N#Cc1ncc(S[C@H]2O[C@H](CO)[C@H](O)[C@H](n3cc(-c4csc(O)n4)nn3)[C@H]2O)cc1Br [Example 15]
4. OC[C@H]1O[C@H](Sc2ccc(Cl)c(Cl)c2)[C@H](O)[C@@H](n2cc(-c3csc(Cl)n3)nn2)[C@H]1O [Example 7]
5. N#Cc1ncc(Cl)cc1S[C@H]1O[C@H](CO)[C@H](O)[C@H](n2cc(-c3csc(O)n3)nn2)[C@H]1O [Example 16]
IN: Order the records by Kd, with each subsequent value no larger than the one before. Provide the labels, sequenced as the question asks.
OUT: 4, 1, 2, 3, 5
